The measured values listed here are drawn from patent US20200390767A1.

test details: PRK clinical study, plasma pharmacokinetics of compound I (LC-MS/MS)
Type: in vivo, human
details: human, plasma, topical or ocular, 2.5 %, min; profile day 1; plasma; topical ocular 2.5% compound I; read-out: Cmax
measured metric: Cmax (ng/mL)
Number in ng/mL, nothing else.

Tell me the measured Cmax of CC(C)c1nc2cc(O)ccc2c(=O)n1-c1ccc(C#N)cc1 , please. 0.195

* * *

test details: PRK clinical study, plasma pharmacokinetics of compound I (LC-MS/MS)
Format: in vivo, human
details: human, plasma, topical or ocular, 2.5 %, median; profile day 1; plasma; topical ocular 2.5% compound I; read-out: Cmax
measured metric: Cmax (ng/mL)
Provide only the numeric value, understood in ng/mL.

# get_value(readout='Cmax', item= CC(C)c1nc2cc(O)ccc2c(=O)n1-c1ccc(C#N)cc1 [Compound I] ) 0.375
